- TGT: T1, G9a and GLP (Homo sapiens, UniProt Q96KQ7+Q9H9B1)
- T1 sequence (Q96KQ7 2-1210 limits assumed): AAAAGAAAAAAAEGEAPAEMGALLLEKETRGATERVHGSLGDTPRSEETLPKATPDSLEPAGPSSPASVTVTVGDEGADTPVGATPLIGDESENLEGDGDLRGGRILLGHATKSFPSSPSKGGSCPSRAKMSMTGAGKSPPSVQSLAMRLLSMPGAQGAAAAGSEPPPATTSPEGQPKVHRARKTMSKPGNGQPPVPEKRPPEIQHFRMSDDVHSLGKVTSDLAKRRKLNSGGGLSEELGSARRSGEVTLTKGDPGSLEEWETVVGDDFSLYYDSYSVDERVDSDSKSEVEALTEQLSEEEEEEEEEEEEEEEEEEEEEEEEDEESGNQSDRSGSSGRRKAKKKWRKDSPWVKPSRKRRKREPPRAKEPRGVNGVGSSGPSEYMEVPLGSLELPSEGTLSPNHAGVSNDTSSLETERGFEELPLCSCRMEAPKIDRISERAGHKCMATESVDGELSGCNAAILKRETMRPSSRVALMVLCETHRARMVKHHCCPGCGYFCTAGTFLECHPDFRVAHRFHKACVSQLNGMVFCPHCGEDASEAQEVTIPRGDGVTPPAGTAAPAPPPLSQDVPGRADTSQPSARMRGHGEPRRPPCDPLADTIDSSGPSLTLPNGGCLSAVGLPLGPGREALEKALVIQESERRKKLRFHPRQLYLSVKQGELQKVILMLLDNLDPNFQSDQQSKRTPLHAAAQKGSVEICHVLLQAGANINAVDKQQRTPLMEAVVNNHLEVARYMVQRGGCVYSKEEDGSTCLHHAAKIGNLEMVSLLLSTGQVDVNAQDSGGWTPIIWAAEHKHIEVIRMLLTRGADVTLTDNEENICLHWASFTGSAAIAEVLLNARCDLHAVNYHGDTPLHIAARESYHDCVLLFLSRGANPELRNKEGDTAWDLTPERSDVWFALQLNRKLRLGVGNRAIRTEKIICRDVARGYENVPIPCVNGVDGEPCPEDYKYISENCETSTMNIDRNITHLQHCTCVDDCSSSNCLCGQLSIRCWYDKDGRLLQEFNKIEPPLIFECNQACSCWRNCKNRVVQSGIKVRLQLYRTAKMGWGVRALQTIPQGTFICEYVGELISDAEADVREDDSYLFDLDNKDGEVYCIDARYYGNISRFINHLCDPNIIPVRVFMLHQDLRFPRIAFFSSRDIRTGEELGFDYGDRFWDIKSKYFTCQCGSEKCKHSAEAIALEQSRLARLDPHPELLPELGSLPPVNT
- T1 sequence (Q9H9B1 2-1298 limits assumed): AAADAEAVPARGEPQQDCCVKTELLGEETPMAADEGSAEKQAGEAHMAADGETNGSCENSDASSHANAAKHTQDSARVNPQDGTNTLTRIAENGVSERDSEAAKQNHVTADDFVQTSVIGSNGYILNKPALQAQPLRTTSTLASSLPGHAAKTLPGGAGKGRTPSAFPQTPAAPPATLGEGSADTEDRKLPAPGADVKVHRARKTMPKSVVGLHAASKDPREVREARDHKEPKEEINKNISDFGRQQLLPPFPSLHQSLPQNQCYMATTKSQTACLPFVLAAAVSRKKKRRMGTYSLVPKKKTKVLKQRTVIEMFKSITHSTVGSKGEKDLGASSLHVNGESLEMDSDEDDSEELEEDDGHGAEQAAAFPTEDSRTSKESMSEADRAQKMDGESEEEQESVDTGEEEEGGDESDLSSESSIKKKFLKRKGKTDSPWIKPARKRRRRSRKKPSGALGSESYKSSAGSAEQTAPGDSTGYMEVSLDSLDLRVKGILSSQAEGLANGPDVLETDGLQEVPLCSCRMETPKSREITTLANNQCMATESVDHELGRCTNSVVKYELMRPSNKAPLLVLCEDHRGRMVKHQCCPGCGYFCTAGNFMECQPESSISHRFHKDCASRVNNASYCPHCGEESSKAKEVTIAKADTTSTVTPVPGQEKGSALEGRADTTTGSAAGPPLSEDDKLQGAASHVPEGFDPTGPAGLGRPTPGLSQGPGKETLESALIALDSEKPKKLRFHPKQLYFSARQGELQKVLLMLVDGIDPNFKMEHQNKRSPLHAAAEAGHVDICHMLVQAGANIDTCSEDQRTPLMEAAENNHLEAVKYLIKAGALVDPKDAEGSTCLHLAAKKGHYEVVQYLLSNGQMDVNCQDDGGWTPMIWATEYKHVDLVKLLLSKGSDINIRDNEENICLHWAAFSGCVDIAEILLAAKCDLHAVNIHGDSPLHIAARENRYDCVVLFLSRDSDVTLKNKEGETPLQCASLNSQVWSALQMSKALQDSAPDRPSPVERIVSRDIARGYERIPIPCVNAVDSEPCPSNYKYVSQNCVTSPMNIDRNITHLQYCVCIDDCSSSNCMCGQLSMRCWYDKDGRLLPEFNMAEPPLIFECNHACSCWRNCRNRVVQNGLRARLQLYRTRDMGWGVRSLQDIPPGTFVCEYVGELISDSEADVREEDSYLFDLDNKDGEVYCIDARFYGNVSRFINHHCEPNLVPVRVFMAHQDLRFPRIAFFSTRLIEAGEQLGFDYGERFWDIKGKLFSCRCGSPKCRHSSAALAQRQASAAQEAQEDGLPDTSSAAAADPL
- PROTOCOL DESCRIPTION: Triple SILAC pull-down after UNC0638 treatment of 293T cells, DMSO/UNC0638 ratio of protein captured by 3×MBT;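 also: mass spectrometry (Q-Exactive) SILAC quantitation, DMSO/UNC0638 ratio computed after subtracting 3×MBTD355N mutant pull-down background, only proteins with at least twofold 3×MBT over mutant signal considered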
- Format: cell-based
- Set-up: endogenous in cells; host or cells: HEK 293T
- MEASUREMENT SETUP: SILAC ratio DMSO relative to UNC0638, pull-down with 3xMBT; UNC0638 in heavy SILAC media; all values in log base 2
MEASUREMENT TYPE: Relative to UNC0638 UNC Heavy (log base 2)

MOLECULE	MEASUREMENT TYPE	UNITS SYMBOL	ENDPOINT VALUE
HPRT1 (protein, UniProt P00492 2-218, looked up) Hypoxanthine-guanine …: ATRSPGVVISDDEPGYDLDLFCIPNHYAEDLERVFIPHGLIMDRTERLARDVMKEMGGHHIVALCVLKGGYKFFADLLDYIKALNRNSDRSIPMTVDFIRLKSYCNDQSTGDIKVIGGDDLSTLTGKNVLIVEDIIDTGKTMQTLLSLVRQYNPKMVKVASLLVKRTPRSVGYKPDFVGFEIPDKFVVGYALDYNEYFRDLNHVCVISETGKAKYKA	Relative to UNC0638 UNC Heavy	log base 2	0.28
PRDX1 (protein, UniProt Q06830 2-199, looked up) Peroxiredoxin-1: SSGNAKIGHPAPNFKATAVMPDGQFKDISLSDYKGKYVVFFFYPLDFTFVCPTEIIAFSDRAEEFKKLNCQVIGASVDSHFCHLAWVNTPKKQGGLGPMNIPLVSDPKRTIAQDYGVLKADEGISFRGLFIIDDKGILRQITVNDLPVGRSVDETLRLVQAFQFTDKHGEVCPAGWKPGSDTIKPDVQKSKEYFSKQK	Relative to UNC0638 UNC Heavy	log base 2	0.17
